The measured values listed here are drawn from patent US20240270821A1.

Assayed System: hGIPR (Homo sapiens)
Sequence (P48546 22-466): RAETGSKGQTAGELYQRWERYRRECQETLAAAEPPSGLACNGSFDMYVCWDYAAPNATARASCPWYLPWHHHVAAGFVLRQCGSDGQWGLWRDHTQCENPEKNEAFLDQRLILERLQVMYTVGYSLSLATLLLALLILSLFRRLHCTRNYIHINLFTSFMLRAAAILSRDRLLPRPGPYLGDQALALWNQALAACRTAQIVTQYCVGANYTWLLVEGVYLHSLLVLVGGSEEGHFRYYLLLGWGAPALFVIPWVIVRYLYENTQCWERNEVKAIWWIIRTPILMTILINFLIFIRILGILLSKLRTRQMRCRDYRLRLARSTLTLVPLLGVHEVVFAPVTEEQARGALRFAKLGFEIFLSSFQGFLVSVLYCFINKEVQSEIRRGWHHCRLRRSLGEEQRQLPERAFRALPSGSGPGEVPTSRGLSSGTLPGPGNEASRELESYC
Experimental Protocol: Functional cAMP activity in the presence of 1% HSA
Type: cell-based
Condition Context: read-out: cAMP Rel EC50, hGIPR
pEC50: −log10 of the molar value. Starred links: 1 amine or outer side, 2 acyl side, 3 side chain; linkers in the order of their positions; H or OH if unused. Non-standard residues stand in square brackets, D forms with d. Groups on a side chain read outwards from the residue. No end group written: not given here. *: point of attachment. C20 diacid = O=C(O)CCCCCCCCCCCCCCCCCCC(=O)*; C18 diacid = O=C(O)CCCCCCCCCCCCCCCCC(=O)*; αMePhe(2-F) = C[C@](N)(Cc1ccccc1F)C(=O)O; γGlu = O=C(O)[C@H](CCC(=O)[*:2])N[*:1]; αMe4Pal = C[C@](N)(Cc1ccncc1)C(=O)O; αMeY = C[C@](N)(Cc1ccc(O)cc1)C(=O)O; 4Pal = N[C@@H](Cc1ccncc1)C(=O)O; αMeL = CC(C)C[C@](C)(N)C(=O)O; αMeS = C[C@](N)(CO)C(=O)O; Orn = NCCC[C@H](N)C(=O)O; Dab = NCC[C@H](N)C(=O)O; AEEA = NCCOCCOCC(=O)O; Aib = CC(C)(N)C(=O)O
So basically: pEC50 at 8 or higher? That is Met. Lower than 8? That is Not met.

Reference set (5 entries):
| Substance | Class |
| --- | --- |
| Y[Aib]QGT[αMePhe(2-F)]TSD[4Pal][αMeS]I[αMeL]LD[Orn]K([AEEA-γGlu-C18 diacid])AA[Aib]EFI[dE][αMeY]LIEGGPSSGAPPPSGGGE-NH2 [Example 745] | Met |
| H-Y[Aib]QGTFTSD[4Pal]S[Orn][αMeL]LD[Orn]K([γGlu-γGlu-C18 diacid])AQ[αMe4Pal]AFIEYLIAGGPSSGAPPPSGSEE-NH2 [Example 1059] | Not met |
| H-Y[Aib]QGT[αMePhe(2-F)]TSD[4Pal][αMeS]I[αMeL]LD[Orn]K([AEEA-γGlu-C18 diacid])AQ[αMe4Pal]EFI[dE][αMeY]LVEGGPSSGAPPPSGSE-NH2 [Example 751] | Met |
| H-Y[Aib]QGTFTSDFS[Orn][αMeL]LDKK([AEEA-γGlu-C18 diacid])AQ[Aib]AFIE[αMeY]LIEGGPSSGAPPPSGS-NH2 [Example 839] | Not met |
| H-Y[Aib]QGTFTSDFS[Dab][αMeL]LDKK([AEEA-γGlu-C18 diacid])AQ[Aib]AFIEYLIE[Aib]GPSSGAPPPSGS-NH2 [Example 799] | Not met |

Q. Check the entry H-Y[Aib]QGT[αMePhe(2-F)]TSD[4Pal]SI[αMeL]LD[Orn]K([γGlu-γGlu-C18 diacid])AQ[αMe4Pal][Orn]FI[dE]YLIEGGPSSGEPPPEGT-NH2 [Example 541] : does pEC50 equal or exceed 8?
A. Met

Q. What do we get for Y[Aib]QGT[αMePhe(2-F)]TSD[4Pal][αMeS]I[αMeL]LD[Orn]K([γGlu-γGlu-C18 diacid])AQ[αMe4Pal]EFI[dE][αMeY]LIEGGPSSGEPPPEGGGE-NH2 [Example 762] ?
A. Met

Q. What do we get for H-Y[Aib]QGT[αMePhe(2-F)]TSD[4Pal][αMeS]I[αMeL]LD[Orn]K([AEEA-γGlu-C18 diacid])AQ[αMe4Pal]EFI[dE][αMeY]LIEGGPSSGEPPPGGE-NH2 [Example 1145] ?
A. Met

Q. What do we get for H-Y[Aib]QGTFTSDYSI[αMeL]LDKK([AEEA-γGlu-C20 diacid])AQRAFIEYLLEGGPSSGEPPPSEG-NH2 [Example 289] ?
A. Not met

Q. What do we get for H-Y[Aib]QGTFTSDFSK[αMeL]LDKK([AEEA-γGlu-C20 diacid])AQ[Aib]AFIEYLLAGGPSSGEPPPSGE[AEEA]-NH2 [Example 33] ?
A. Not met
